# Tested on: Pseudomonas aeruginosa
# Experiment notes: Antibacterial activity against Pseudomonas aeruginosa ATCC 9027 after 24 hrs by broth micro dilution assay
# Type: functional
# Condition label: ATCC 9027, 24 h
Hi there, I'd appreciate the recorded MIC90 for every entry that follows.
Your answer is read as µg/mL, so omit the unit and give the number.

query: What does the record list as MIC90 for CN[C@@H]1[C@H](O[C@H]2[C@H](O[C@H]3[C@H](O)[C@@H](O)[C@H](N=C(N)N)[C@@H](O)[C@@H]3N=C(N)N)O[C@@H](C)[C@]2(O)C=O)O[C@@H](CO)[C@H](O)[C@H]1O [STREPTOMYCIN] ?
result: 4

query: Would you kindly share the measured MIC90 for CCOc1ccc(/C=N/n2c(S)nnc2-c2cn(CC)c3nc(C)ccc3c2=O)cc1 ?
result: 63

query: What value of MIC90 has been recorded for this entry: CCn1cc(-c2nnc(S)n2/N=C/c2ccc([N+](=O)[O-])cc2)c(=O)c2ccc(C)nc21
result: 63

query: Bench note: what MIC90 did CCn1cc(-c2nnc(S)n2/N=C/c2cccc(Br)c2)c(=O)c2ccc(C)nc21 show?
result: 16

query: Reported MIC90 for CCn1cc(-c2nnc(S)[nH]2)c(=O)c2ccc(C)nc21 : what is it?
result: 125

query: Dear colleague, I am looking for the recorded MIC90 of the following molecule: CCn1cc(-c2nnc(S)n2/N=C/c2ccc(C)cc2)c(=O)c2ccc(C)nc21
result: 63

query: Form field: reported MIC90 of CCn1cc(-c2nnc(S)n2/N=C/c2ccc(OC)cc2)c(=O)c2ccc(C)nc21
result: 16

query: State the recorded MIC90 for this entry: CCn1cc(-c2nnc(S)n2/N=C/c2c(Cl)cccc2Cl)c(=O)c2ccc(C)nc21
result: 63

* * *

# System: Aspergillus niger
# Experiment notes: Antifungal activity against Aspergillus niger by food poison technique
# Format: functional
# Condition label: read-out: ED50 (the source's name)
Observable: EC50
Give the number first and the unit second.

query: Form: Entry = CCn1cc(-c2nnc(S)n2/N=C/c2ccc(SC)cc2)c(=O)c2ccc(C)nc21 | System = Aspergillus niger | EC50 = ____
result: 251 µg/mL

query: Requested read-out EC50, target or system Aspergillus niger, entry CCn1cc(-c2nnc(S)n2/N=C/c2ccc(OC)cc2)c(=O)c2ccc(C)nc21
result: 105 µg/mL

query: Observed EC50 on Aspergillus niger for CCn1cc(-c2nnc(S)n2/N=C/c2ccc(Br)cc2)c(=O)c2ccc(C)nc21 , please.
result: 144 µg/mL

query: Recall the recorded EC50 for CCn1cc(-c2nnc(S)n2NC(=O)c2ccccc2)c(=O)c2ccc(C)nc21 with Aspergillus niger and state it.
result: 88.5 µg/mL

query: Recall the recorded EC50 for CCn1cc(-c2nnc3n2N=C(c2ccccc2)CS3)c(=O)c2ccc(C)nc21 with Aspergillus niger and state it.
result: 148 µg/mL

* * *

# System: Bacillus subtilis
# Experiment notes: Antibacterial activity against Bacillus subtilis ATCC 12711 after 24 hrs by broth micro dilution assay
# Format: functional
# Condition label: ATCC 12711, 24 h
Observable: MIC90 (µg/mL)
Write the answer as a number in µg/mL, unit excluded.

query: Return reported MIC90; argument: CCn1cc(-c2nnc(S)n2N)c(=O)c2ccc(C)nc21
result: 63

query: Given CCn1cc(-c2nnc3sc(=O)c(=O)[nH]n23)c(=O)c2ccc(C)nc21 , state its recorded MIC90.
result: 125

query: What measured MIC90 goes with CCn1cc(-c2nnc(S)n2/N=C/c2ccc(C(C)(C)C)cc2)c(=O)c2ccc(C)nc21 ?
result: 31

query: # lookup: MIC90 of CCn1cc(-c2nnc3sc(S)nn23)c(=O)c2ccc(C)nc21
result: 125

query: Give its MIC90 value. Item: CCOc1ccc(/C=N/n2c(S)nnc2-c2cn(CC)c3nc(C)ccc3c2=O)cc1
result: 63

query: Item under review: CCn1cc(-c2nnc(S)n2/N=C/c2ccc(C(F)(F)F)cc2)c(=O)c2ccc(C)nc21 . Reported MIC90?
result: 63

query: Which value of MIC90 has been reported for CCn1cc(-c2nnc(S)n2/N=C/c2ccc(C#N)cc2)c(=O)c2ccc(C)nc21 in the records?
result: 63

query: If you can, please state the reported MIC90 value of CCn1cc(-c2nnc3sc(-c4ccccc4Cl)nn23)c(=O)c2ccc(C)nc21 .
result: 16

query: So what's the measured MIC90 for this one? CCn1cc(-c2nnc3sc(-c4cccc(Cl)c4)nn23)c(=O)c2ccc(C)nc21
result: 31

query: I would be grateful if you could share the reported MIC90 for CCn1cc(-c2nnc(S)n2NC(=O)c2ccccc2)c(=O)c2ccc(C)nc21 .
result: 63

* * *

# System: Staphylococcus aureus
# Experiment notes: Antibacterial activity against Staphylococcus aureus ATCC 2937 after 24 hrs by broth micro dilution assay
# Assay type: functional
# Condition label: ATCC 2937, 24 h
Observable: MIC90 (µg/mL)
Provide only the numeric value, understood in µg/mL.

query: Give the measured MIC90 of CCn1cc(-c2nnc(S)n2/N=C/c2ccc(Cl)cc2Cl)c(=O)c2ccc(C)nc21 .
result: 125

query: Which MIC90 value is on record for CCn1cc(-c2nnc(S)n2NC(C)=O)c(=O)c2ccc(C)nc21 ?
result: 63

query: Which MIC90 value is on record for CN[C@@H]1[C@H](O[C@H]2[C@H](O[C@H]3[C@H](O)[C@@H](O)[C@H](N=C(N)N)[C@@H](O)[C@@H]3N=C(N)N)O[C@@H](C)[C@]2(O)C=O)O[C@@H](CO)[C@H](O)[C@H]1O [STREPTOMYCIN] ?
result: 15

query: Need MIC90, item CCn1cc(-c2nnc(S)n2N)c(=O)c2ccc(C)nc21
result: 63

query: # lookup: MIC90 of CCn1cc(-c2nnc3sc(=O)c(=O)[nH]n23)c(=O)c2ccc(C)nc21
result: 250

query: Which MIC90 value belongs to CCn1cc(-c2nnc(S)n2/N=C/c2ccc(C(F)(F)F)cc2)c(=O)c2ccc(C)nc21 ?
result: 250

query: Returns the measured MIC90 for the input molecule. Input: CCn1cc(-c2nnc3sc(-c4cccc(Cl)c4Cl)nn23)c(=O)c2ccc(C)nc21
result: 125

query: // MIC90 lookup, key: CCn1cc(-c2nnc(S)n2/N=C/c2cccc([N+](=O)[O-])c2)c(=O)c2ccc(C)nc21
result: 125

query: // lookup MIC90 for CCn1cc(-c2nnc(S)n2/N=C/c2ccccc2)c(=O)c2ccc(C)nc21
result: 250

query: Item under review: CCn1cc(-c2nnc(S)n2/N=C/c2ccc(Cl)cc2)c(=O)c2ccc(C)nc21 . Reported MIC90?
result: 125

query: Name the reported MIC90 value associated with the molecule CCn1cc(-c2nnc3sc(-c4cccc([N+](=O)[O-])c4)nn23)c(=O)c2ccc(C)nc21
result: 125

query: Recorded MIC90 of CCn1cc(-c2nnc3sc(-c4ccccc4Cl)nn23)c(=O)c2ccc(C)nc21 , please.
result: 16

query: Could you share which MIC90 value was measured for CCn1cc(-c2nnc(S)n2/N=C/c2ccc(Br)cc2)c(=O)c2ccc(C)nc21 ?
result: 125

query: Which measured MIC90 value corresponds to CCn1cc(-c2nnc3sc(S)nn23)c(=O)c2ccc(C)nc21 ?
result: 250

query: So what's the measured MIC90 for this one? CCn1cc(-c2nnc3sc(-c4ccccc4)nn23)c(=O)c2ccc(C)nc21
result: 63

query: Requested read-out: MIC90. Entry: CCn1cc(-c2nnc(S)n2/N=C/c2ccc(N(C)C)cc2)c(=O)c2ccc(C)nc21
result: 125

query: // query MIC90 value for entry CCn1cc(-c2nnc(S)n2/N=C/c2ccc(C(C)(C)C)cc2)c(=O)c2ccc(C)nc21
result: 125

query: Name the recorded MIC90 for CCn1cc(-c2nnc(S)n2/N=C/c2ccc([N+](=O)[O-])cc2)c(=O)c2ccc(C)nc21 .
result: 125

query: Param item = CCn1cc(-c2nnc(S)n2/N=C/c2ccc(C(C)C)cc2)c(=O)c2ccc(C)nc21 ; retrieve measured MIC90.
result: 63

* * *

# Tested on: Bacillus subtilis
# Experiment notes: Antibacterial activity against Bacillus subtilis ATCC 12711 after 24 hrs by broth micro dilution assay
# Assay type: functional
# Condition label: ATCC 12711, 24 h
So I've got a bunch of compounds here, and I need their MIC90 values.
Dear colleague, please return just the value in µg/mL, with no unit written.

query: Quick one: MIC90 for CCn1cc(-c2nnc(S)n2/N=C/c2ccc(Br)cc2)c(=O)c2ccc(C)nc21 ?
result: 250

query: Field request: MIC90 | item: CCn1cc(-c2nnc(S)n2/N=C/c2ccc(OC)cc2)c(=O)c2ccc(C)nc21
result: 16

query: Record request: MIC90 value, item CCn1cc(-c2nnc(S)n2/N=C/c2ccc(Cl)cc2Cl)c(=O)c2ccc(C)nc21
result: 125

query: Please give the measured MIC90 for this compound: CCn1cc(-c2nnc(S)n2/N=C/c2ccc([N+](=O)[O-])cc2)c(=O)c2ccc(C)nc21
result: 125

query: Record request: MIC90 value, item CCn1cc(-c2nnc(S)n2/N=C/c2ccc(SC)cc2)c(=O)c2ccc(C)nc21
result: 125

query: # query: MIC90 of entry CCn1cc(-c2nnc3sc(-c4ccccc4)nn23)c(=O)c2ccc(C)nc21
result: 125

query: Find the recorded MIC90 belonging to CCn1cc(-c2nnc3sc(-c4ccc(Cl)cc4)nn23)c(=O)c2ccc(C)nc21 and report it.
result: 63

query: For the compound CCn1cc(-c2nnc(S)n2NC(C)=O)c(=O)c2ccc(C)nc21 , what MIC90 is on record?
result: 63

query: What value of measured MIC90 is listed for CCn1cc(-c2nnc3sc(-c4cccc([N+](=O)[O-])c4)nn23)c(=O)c2ccc(C)nc21 ?
result: 125
